# System: SNB-19 CNS
# assay_overview: NCI tumour cell line growth inhibition, 48 h
property_label: TGI

compound="N#CNCC(COCc1ccccc1)c1ccccc1 (stereo not given)" target_or_system="SNB-19 CNS" property_label=TGI reported="> 100 µM"
compound=CC(C)N(CCCNC(=O)Nc1ccc(C(C)(C)C)cc1)C[C@H]1O[C@@H](n2ccc3c(N)ncnc32)[C@H](O)[C@@H]1O target_or_system="SNB-19 CNS" property_label=TGI reported="> 100 µM"
compound="Cc1c2c(n(C)c1C)C(=O)C1C(C2=O)C2(C)c3ccccc3C1(C)c1ccccc12 (stereo not given)" target_or_system="SNB-19 CNS" property_label=TGI reported="> 100 µM"
compound="O=C(OCC1OC(n2cc(C(F)(F)F)c(=O)[nH]c2=O)CC1OC(=O)c1ccc([N+](=O)[O-])cc1)c1ccc([N+](=O)[O-])cc1 (stereo not given)" target_or_system="SNB-19 CNS" property_label=TGI reported="> 100 µM"
compound=COc1cccc2c1O/C(=C\c1ncc([N+](=O)[O-])n1C)C2=O target_or_system="SNB-19 CNS" property_label=TGI reported="5.75 µM"
compound="O=C1OCC2=C1C(c1ccc3c(c1)OCO3)c1cc3c(cc1O2)OCO3 (stereo not given)" target_or_system="SNB-19 CNS" property_label=TGI reported="> 27.2 µM"
compound=S=c1[nH]nc(-c2ccccc2)n1/N=C\c1ccc(-c2ccc(Cl)cc2)o1 target_or_system="SNB-19 CNS" property_label=TGI reported="> 100 µM"
compound="O=S(=O)(c1ccccc1)n1c(C(O)c2ccccc2)cc2ccccc21 (stereo not given)" target_or_system="SNB-19 CNS" property_label=TGI reported="26.7 µM"
compound=Cn1c(-c2ccccc2)cc(-c2cccs2)c1-c1ccsc1 target_or_system="SNB-19 CNS" property_label=TGI reported="> 100 µM"
compound="CCC(C)NC(=S)N/N=C(\\C)c1nc2ncccc2[nH]1 (stereo not given)" target_or_system="SNB-19 CNS" property_label=TGI reported="97.8 µM"

* * *

# Tested on: PC-3 prostate
# assay_overview: NCI tumour cell line growth inhibition, 48 h
property_label: GI50

structure_string=CC1(C)CC[C@]2(C(=O)Nc3ccccn3)CC[C@]3(C)C(=CC[C@@H]4[C@@]5(C)C/C(=C/c6ccncc6)C(=O)C(C)(C)[C@@H]5CC[C@]43C)[C@@H]2C1 reported="0.624 µM"
structure_string=CC(=O)N1CCC(Nc2ncc3cc(Oc4ccc(F)cc4F)c(=O)n(C)c3n2)CC1 reported="> 25 µM"
structure_string=COc1cc(/C=C/C(=O)c2ccccc2)cc(OC)c1OC reported="4.54 µM"
structure_string=COC(=O)/C=C1/SC(=Nc2ccc(F)cc2)N(CCc2c[nH]c3ccc(O)cc23)C1=O reported="7.05 µM"

* * *

# System: SF-268 CNS
# assay_overview: NCI tumour cell line growth inhibition, 48 h; in the data active = GI50 below about 0.43 µM; inactive = the rest
Classes used: active, inactive

compound=COc1ccc(C(=O)c2sc3nc4c(cc3c2N)CCCC4)cc1OC target_or_system="SF-268 CNS" class_assignment=inactive
compound=N/C(=N\N=C/c1c2ccccc2c(Cl)c2ccccc12)NO target_or_system="SF-268 CNS" class_assignment=inactive
compound=[2H]c1nc(C)nc([2H])c1-c1cc(NC[C@@H](C)c2cccc3c(C(=O)NC)ccnc23)ncn1 target_or_system="SF-268 CNS" class_assignment=inactive
compound=CC1(C)CC[C@]2(C(=O)Nc3ccccn3)CC[C@]3(C)C(=CC[C@@H]4[C@@]5(C)C/C(=C/c6ccncc6)C(=O)C(C)(C)[C@@H]5CC[C@]43C)[C@@H]2C1 target_or_system="SF-268 CNS" class_assignment=inactive
compound=CC(=O)Oc1cc(C(C)C)c(OCCN(C)C)cc1C target_or_system="SF-268 CNS" class_assignment=inactive
compound=COc1cc(OC)c(/C=C/c2cc[n+](C)c3ccccc23)c(OC)c1 target_or_system="SF-268 CNS" class_assignment=inactive
compound=COc1ccc(C(=S)N(C)NC(=O)CC(=O)NN(C)C(=S)c2ccc(OC)cc2)cc1 target_or_system="SF-268 CNS" class_assignment=inactive
compound=N#C/C(=C\c1ccc(Br)cc1)n1nnc2c(F)cccc21 target_or_system="SF-268 CNS" class_assignment=inactive
compound=Cc1ccc(CN(C)c2ccc(CO)c(Cl)c2)cc1 target_or_system="SF-268 CNS" class_assignment=inactive
compound=C[CH2][Pb]([CH2]C)([CH2]C)[O]C(=O)COC target_or_system="SF-268 CNS" class_assignment=inactive
compound="c1ccc2nc(N/N=C3\\CCCCC3C3CCCCC3)ccc2c1 (stereo not given)" target_or_system="SF-268 CNS" class_assignment=inactive
compound=Cn1c(-c2ccncc2)c(-c2ccc(F)cc2)c2ncccc21 target_or_system="SF-268 CNS" class_assignment=inactive
compound=COc1cc2cnc3c(c2c(OC)c1OC)Cc1cc2c(cc1-3)OCO2 target_or_system="SF-268 CNS" class_assignment=inactive
compound=Cn1cc(-c2csc(-c3c[nH]c4ccccc34)n2)c2cnccc21 target_or_system="SF-268 CNS" class_assignment=inactive
compound=COc1ccc2c(c1OC)-c1c(c3ccc([N+](=O)[O-])cc3c(=O)n1CCCN)C2=O target_or_system="SF-268 CNS" class_assignment=inactive
compound=O=c1ccccc(-c2ccc(Br)cc2)c1O target_or_system="SF-268 CNS" class_assignment=active
compound=O=C1/C=C/[C@@H](O)[C@@H]2C[C@@H](O)C[C@H]2/C=C/CCC[C@H](CCc2ccccc2)O1 target_or_system="SF-268 CNS" class_assignment=active
compound="CC(=O)NC1C(OCc2ccccc2)OC(CO)C(O)C1OC(C)C(=O)NC(C)C(=O)N[C@@H](CCC(=O)OCCCNC1c2ccccc2Nc2cccc([N+](=O)[O-])c21)C(N)=O (stereo not given in full)" target_or_system="SF-268 CNS" class_assignment=active
compound="CCc1ccc(C(=O)/C=C/C23c4ccccc4C(c4ccccc42)C2C(=O)NC(=O)C23)cc1 (stereo not given)" target_or_system="SF-268 CNS" class_assignment=inactive
compound=CCCN1C/C(=C\c2ccc(O)c(OC)c2)C(=O)/C(=C/c2ccc(O)c(OC)c2)C1 target_or_system="SF-268 CNS" class_assignment=inactive
